# testedTarget: glucosylceramide synthase (GCS) (Homo sapiens (Human))
# Sequence (Q16739 whole entry): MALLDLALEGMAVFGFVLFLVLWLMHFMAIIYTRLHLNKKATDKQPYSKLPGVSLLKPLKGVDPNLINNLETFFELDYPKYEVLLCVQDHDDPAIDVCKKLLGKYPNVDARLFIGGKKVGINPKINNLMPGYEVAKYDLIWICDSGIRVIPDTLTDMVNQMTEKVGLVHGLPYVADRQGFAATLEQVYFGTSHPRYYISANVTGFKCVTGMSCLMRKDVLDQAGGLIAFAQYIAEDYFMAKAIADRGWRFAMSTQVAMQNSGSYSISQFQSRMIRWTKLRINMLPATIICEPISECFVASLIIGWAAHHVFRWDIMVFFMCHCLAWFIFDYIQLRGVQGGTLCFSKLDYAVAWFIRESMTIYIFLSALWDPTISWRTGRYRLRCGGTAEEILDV
# procedureDetails: UDP-Glo glucosylceramide synthase biochemical assay
# conditionSet: endogenous GCS in Golgi preparations isolated from human A375 malignant melanoma skin cells; UDP detection by luminescence
reportedProperty: IC50 (nM)
Hi! Could you send only the number? It should be in nM, unit omitted.

Asked: What value of measured IC50 is listed for "COC(=O)C[C@@H]1COc2cc(OC3CN(c4nc(C5CC5)ncc4C#N)C3)ccc21" ?
Given back: 303

Asked: What value of measured IC50 is listed for "N#Cc1cnc(C2CC2)nc1OC[C@H]1CCN(c2ccc(C3CC3)nc2)C1" ?
Given back: 377

Asked: What value of measured IC50 is listed for "COC(=O)c1cc(N2CC(c3nc4ccccc4n3C)C2)nc(C)n1" ?
Given back: 2820

Asked: What value of measured IC50 is listed for "N#Cc1cnc(C2CC2)nc1N1CCc2c(sn(Cc3ccc(F)cc3)c2=O)C1" ?
Given back: 2760

Asked: What value of measured IC50 is listed for Cc1nc2c(s1)C(Oc1nc(C3CC3)ncc1C#N)CCC2 (centres unmarked) ?
Given back: 971

Asked: What value of measured IC50 is listed for Cc1nc(N2CC(c3nc4ccccc4n3C)C2)cc(N2CC(CC(C)C)CC2=O)n1 (centres unmarked) ?
Given back: 1140

Asked: What value of measured IC50 is listed for CC(Oc1nc(C2CC2)ncc1C#N)[C@H]1CCN(c2ncc(C(F)(F)F)cn2)C1 (some centres unmarked) ?
Given back: 81

Asked: What value of measured IC50 is listed for "N#Cc1cnc(C2CC2)nc1OC[C@H]1C[C@@H]1c1ccc(F)cn1" ?
Given back: 1030
